Overview of reported Ki across a group of compounds:
- measurement_target: human α2δ-1 subunit of Cav2.2 calcium channel (Homo sapiens (Human))
- Sequence (P54289 25-1103): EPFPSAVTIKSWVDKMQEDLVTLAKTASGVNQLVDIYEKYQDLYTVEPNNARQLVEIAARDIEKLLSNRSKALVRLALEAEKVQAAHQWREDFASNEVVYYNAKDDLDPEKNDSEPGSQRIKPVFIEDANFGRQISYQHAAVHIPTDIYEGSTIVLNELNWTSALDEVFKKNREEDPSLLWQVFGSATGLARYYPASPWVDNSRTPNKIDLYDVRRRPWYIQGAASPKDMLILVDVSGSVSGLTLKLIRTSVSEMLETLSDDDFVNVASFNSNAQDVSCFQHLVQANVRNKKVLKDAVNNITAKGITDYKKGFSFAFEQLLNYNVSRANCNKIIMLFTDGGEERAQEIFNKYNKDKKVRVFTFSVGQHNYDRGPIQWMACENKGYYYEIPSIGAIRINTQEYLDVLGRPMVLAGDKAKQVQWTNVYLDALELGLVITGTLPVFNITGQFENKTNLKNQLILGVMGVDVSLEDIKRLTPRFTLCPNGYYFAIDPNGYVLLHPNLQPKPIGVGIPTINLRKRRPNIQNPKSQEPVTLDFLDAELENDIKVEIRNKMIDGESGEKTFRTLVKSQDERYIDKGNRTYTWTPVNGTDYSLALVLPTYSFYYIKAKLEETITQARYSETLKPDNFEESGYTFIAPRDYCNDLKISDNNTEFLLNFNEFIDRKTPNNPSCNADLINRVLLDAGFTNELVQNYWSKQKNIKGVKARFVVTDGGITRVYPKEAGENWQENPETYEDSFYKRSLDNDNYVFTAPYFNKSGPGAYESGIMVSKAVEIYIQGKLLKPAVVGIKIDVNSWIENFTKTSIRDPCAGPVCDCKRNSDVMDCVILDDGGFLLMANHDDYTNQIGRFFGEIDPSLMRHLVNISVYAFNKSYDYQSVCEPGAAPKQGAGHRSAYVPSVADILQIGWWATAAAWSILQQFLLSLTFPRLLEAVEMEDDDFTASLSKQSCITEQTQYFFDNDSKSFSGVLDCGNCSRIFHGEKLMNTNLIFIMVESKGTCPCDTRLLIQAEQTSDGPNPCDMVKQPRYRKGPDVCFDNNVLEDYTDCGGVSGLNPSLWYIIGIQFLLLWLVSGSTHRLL
- run_description: Binding assay to human α2δ-1 subunit of Cav2.2 calcium channel ([3H]-Gabapentin)
- particulars: binding to α2δ-1, [3H]-Gabapentin; read-out: Ki (nM) α2δ-1

# compound, value_reported
rows = [
    ("CNCC[C@H](Oc1ccc(CN2CCN(C)c3cc(OC)ncc3C2=O)cc1)c1cccs1", "100 to 500 nM"),
]

Fill blank: measured Ki of the compound `CCNc1ncc2c(n1)N(C)CCN(c1ccc(O)cc1)C2=O` is ____.
> 3000 nM

Which Ki is reported for this compound? CNCCC(Oc1ccc(CN2CCN(C)c3ccncc3C2=O)cc1)c1cccs1 (stereo not drawn)
100 to 500 nM

// returns reported Ki for input CCNc1ncc2c(n1)N(C)CCN(c1cccc(COC(CCN(C)C(=O)OC(C)(C)C)C(C)C)c1)C2=O (stereo not drawn)
> 3000 nM

I'd like to know its Ki. The compound in question is CNCC(OCc1cccc(N2CCN(C)c3nc(SC)ncc3C2=O)c1)c1ccccc1 (stereo not drawn)
> 3000 nM

Name the recorded Ki for `CNCC[C@H](Oc1ccc(CN2CCN(C)c3ncncc3C2=O)cc1)c1ccccc1` .
500 to 3000 nM
